Numbers sourced from ChEMBL document CHEMBL5385895.

Assay: in vitro
Settings: dog, MDCK
Reported property: efflux ratio at 2 h
Numbers only.

Suppose we examine the molecule `CCNC(=O)Nc1nonc1/C(=N/O)Nc1ccc(F)c(Br)c1` ; what efflux ratio at 2 h value has been reported? 0.58

---

Field: AUC(0-inf). Provide a value for each of the compounds that follow.
Assay: AUC (0 to infinity) in Sprague-Dawley rat at 25 mg/kg, po by LC-MS/MS analysis
Format: ADME, organism-based
Design: dose 25 mg/kg, route po
Conditions: in vivo
Please provide the amount together with its unit, number first.

NS(=O)(=O)NCCNc1nonc1C(=NO)Nc1ccc(F)c(Br)c1 | 530 ng·h/mL

Given the compound `CCNC(=O)Nc1nonc1/C(=N/O)Nc1ccc(F)c(Br)c1` , what is its reported AUC(0-inf)? 2250 ng·h/mL
